Cited source for all entries: patent WO2001072771A2

system.under.test: soluble IGF-1 receptor (human) (UniProt P08069)
experimental.details: phage ELISA
Given measured ratio over background, output 1 if it is greater than or equal to 20 and -1 if not.

[
  {
    "binder": "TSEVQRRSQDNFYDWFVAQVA [A6S-3-E2-IR]",
    "category.label": 1
  },
  {
    "binder": "GCITAENGAGDPFYHKLSELGGCS [B6Hα-1-B3-IR]",
    "category.label": -1
  },
  {
    "binder": "NYRRQVFNGNFYDWFDRQVFSLVTPG [H2CA-3-D8-IGFR]",
    "category.label": -1
  }
]

(Q) Given the entry NSRDGGFYLQLERLLGFPVTG [20E2B-3-D4-IGFR] , answer whether its ratio over background meets or surpasses 20.
(A) -1

(Q) Given the entry QPAPDGFYSALMKLIGRGGVS [20E2B-3-C8-IGFR] , answer whether its ratio over background meets or surpasses 20.
(A) -1

(Q) Given the entry VGTVAGFYDAIAQLVARASRV [20E2A-3-C7-IGFR] , answer whether its ratio over background meets or surpasses 20.
(A) -1

(Q) Given the entry SGAKVIWTGDSGDPFYHKLSELLQGS [B6Hα-2-C10-IR] , answer whether its ratio over background meets or surpasses 20.
(A) -1

(Q) Given the entry QGNVLDFYGWIGRLLAKQGSD [20E2B-3-D12-IGFR] , answer whether its ratio over background meets or surpasses 20.
(A) -1

(Q) Given the entry RGCNDDGGKGWSDDPFYHKLSELICGG [B6Hα-1-A2-IR] , answer whether its ratio over background meets or surpasses 20.
(A) -1

(Q) Given the entry VGYQGQGDENFYDWFIRQVSGRLGVQ [H2CA-4-F5-IGFR] , answer whether its ratio over background meets or surpasses 20.
(A) -1

(Q) Given the entry AGSVTSFYDAMEQLVATGTSA [20E2A-3-A4-IGFR] , answer whether its ratio over background meets or surpasses 20.
(A) -1
